- system: C1b domain of human PKCδ (Homo sapiens, UniProt Q05655)
- Construct: Genes encoding C1b domains of human PKCα, δ, ε, θ, and PKD1 (PKCμ) were synthesized; made in house; host or cells: E. coli BL21(DE3)
- Sequence (Q05655 230-280 limits assumed): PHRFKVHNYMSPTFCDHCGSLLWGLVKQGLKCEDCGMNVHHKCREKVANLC
- assay.name: Competitive 3H-PDBu binding to C1b domain of PKCδ
- experimental.context: Ki PKCδ, 3H-PDBu competition
pKi: −log10 of the molar value.
experimental.readout: pKi

smiles_input=CC1=C[C@H]2[C@@]3(O)[C@H](C)C[C@]4(OC(=O)CCc5scnc5C)[C@H]([C@@H]3C=C(CO)C[C@]2(O)C1=O)C4(C)C experimental_readout=pKi value_measured="7.22 to 7.52"
smiles_input=CC1=C[C@H]2[C@@]3(O)[C@H](C)C[C@]4(OC(=O)[C@@H](N)CC(C)(C)C)[C@H]([C@@H]3C=C(CO)C[C@]2(O)C1=O)C4(C)C experimental_readout=pKi value_measured="7.52 to 9.00"
smiles_input=CC1=C[C@H]2[C@@]3(O)[C@H](C)C[C@]4(OC(=O)C5CC6(CNC6)C5)[C@H]([C@@H]3C=C(CO)C[C@]2(O)C1=O)C4(C)C experimental_readout=pKi value_measured="6.10 to 6.40"
smiles_input=CC1=C[C@H]2[C@@]3(O)[C@H](C)C[C@]4(OC(=O)[C@@H](N)CC5CCCCC5)[C@H]([C@@H]3C=C(CO)C[C@]2(O)C1=O)C4(C)C experimental_readout=pKi value_measured="> 8.30"

Now for the compound whose pKi we want.
Task item: For the compound CC1=C[C@H]2[C@@]3(O)[C@H](C)C[C@]4(OC(=O)CCc5ccncc5)[C@H]([C@@H]3C=C(CO)C[C@]2(O)C1=O)C4(C)C , what pKi is on record?
Reply: 6.70 to 7.00

Data credit: patent US20220411362A1
